test details: Leishmania major promastigote growth inhibition, primary screen (AID 1063);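 also: promastigotes grown with compound for 44 hours at 28 °C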
assay setup: Leishmania major promastigotes, resazurin fluorescence viability; at 10 µM; active compounds read high
Screen size: about 200,000 compounds; about 18,000 (9%) were called active. Only a selection was taken, and actives are over-represented in it overall. Where a SMILES comes first, the peptide text is derived from it. The star is where a group is joined. OPac = O=C(CO*)c1ccccc1; Bz = O=C(c1ccccc1)*
Quick list: inhibition per entry.
assay readout: inhibition (%)

INSERT INTO measurements (molecule, reported_result) VALUES
  ('Cc1ccc(C(=O)COc2cccc(NC(=O)c3ccco3)c2)cc1', 64.6),
  ('O=C(c1ccc(F)cc1)N1CCCC(c2nc(-c3cccs3)no2)C1 (centres undefined)', 5.3),
  ('Cc1cccc(NC(=S)NC(=O)c2ccc(Br)o2)c1', -3.34),
  ('CCCC1NC(=S)NC(C)=C1C(C)=O (centres undefined)', -12.4),
  ('Cc1ccc(N=Cc2c(O)cc(C)oc2=O)c(C)c1', -1.99),
  ('COc1ccc(-c2nnc(SCC(=O)c3ccc4c(c3)OCCO4)o2)cc1', -4.95),
  ('COc1ccc(-c2nnc(SC(C)C#N)o2)cc1 (centres undefined)', -3.1),
  ('Cc1ccc(-c2nc(C#N)c(NCCCn3ccnc3)o2)cc1', 2.16),
  ('N/C(=N\OC(=O)c1ccc2c(c1)OCO2)c1ccc(Br)cc1', 1.57),
  ('Cc1cccc(NC(=O)CN2C(=O)c3ccccc3C2=O)c1C', -7.46),
  ('CC(Oc1cccc(NC(=O)c2cccs2)c1)C(=O)c1ccccc1 (centres undefined)', 16.5),
  ('CCOC(=O)c1oc2ccccc2c1NC(=O)c1cccs1', -2.52),
  ('COc1ccc(N2CCN(C(=O)/C(C#N)=C/c3ccccc3)CC2)cc1', 6.39),
  ('COC(=O)c1ccc(NC(=O)c2ccco2)cc1', -5.73),
  ('COc1cccc(CNC(=O)CCC2CCCN(C(=O)c3ccoc3C)C2)c1 (centres undefined)', -4.54),
  ('Cc1ccc(NC(=O)CN2CCCCC2)c2c1CC(C)(C)O2', 3.82),
  ('Cc1ccc(Cl)c(NC(=O)CN2CCN(C=O)CC2)c1', -1.88),
  ('CCOC(=O)c1cnc(Nc2nc3ccccc3o2)nc1CSC(=S)N1CCCCC1', 56.7),
  ('O=C(CNC(=O)c1ccccc1)NCC(=O)OCC(=O)c1ccccc1 (Bz-Gly-Gly-OPac)', -9.69),
  ('Cc1ccnc(NC(=O)c2ccc(NC(=O)c3ccco3)cc2)c1', -2.95),
  ('CN(C)C(=O)N1CCNCC1', -4.41),
  ('COCc1c(C(=O)OCc2c(C)noc2C)oc2ccccc12', -3.77),
  ('CCOc1ccc(NC(=O)CCS(=O)(=O)c2ccc3c(c2)CCCN3C(=O)CC)cc1', 62.8),
  ('O=C(Cc1cccs1)N1CCCC(c2nc(-c3ccc(S(=O)(=O)N4CCCC4)cc3)no2)C1 (centres undefined)', 95.1);

---

test details: Leishmania major promastigote growth inhibition, primary screen (AID 1063);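 also: promastigotes grown with compound for 44 hours at 28 °C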
assay setup: Leishmania major promastigotes, resazurin fluorescence viability; at 10 µM; active compounds read high
The campaign covered roughly 200,000 compounds. About 18,000 (9%) were called active. The entries come from a sample that favours actives as a whole.
assay readout: inhibition (%)

INSERT INTO measurements (compound, assay_readout, reported_result) VALUES
  ('O=C(CCN1CCCCC1)N=Nc1c(O)[nH]c2ccccc12', 'inhibition', 11.4),
  ('COc1cccc(OC)c1C(=O)Nc1ccc(N2CCCCC2)cc1', 'inhibition', -1.53),
  ('Cc1cc(NC(=O)CCC2COc3ccccc3O2)no1 (stereo unspecified)', 'inhibition', -5.57),
  ('Cc1ccc(C2CC(c3cccc(NS(C)(=O)=O)c3)=NN2S(C)(=O)=O)cc1 (stereo unspecified)', 'inhibition', 10.8),
  ('COc1cccc(CNn2cn[nH]c2=S)c1OCc1ccccc1', 'inhibition', 15.9),
  ('c1ccc2c(c1)OCCOCCOCCO2', 'inhibition', -1.98),
  ('COc1ccc(Nc2cc(C)nc(-n3nc(C)cc3C)n2)cc1', 'inhibition', 28.9),
  ('N/C(=N\OC(=O)Cc1ccc([N+](=O)[O-])cc1)c1ccccn1', 'inhibition', 98.7),
  ('O=C(OCc1ccc([N+](=O)[O-])cc1)c1ccccn1', 'inhibition', -0.28),
  ('CC(C)c1csc(CN2CCC(CO)(Cc3ccccc3)CC2)n1', 'inhibition', 14.2),
  ('COc1ccc(NC(=O)CSc2nnc(-c3ccccc3F)n2C2CC2)cc1S(N)(=O)=O', 'inhibition', 2.82),
  ('c1csc(-c2nnc(COc3ccc4c(c3)OCO4)o2)c1', 'inhibition', 5.84),
  ('Cc1ccc(S(=O)(=O)N(CC(=O)NN=C2CCN(C)CC2)c2ccc(F)cc2)cc1', 'inhibition', -0.06),
  ('CCCCCCCCCOC1OC(CO)C(O)C(O)C1NC(C)=O (stereo unspecified)', 'inhibition', 16.4),
  ('COc1ccc(C(=O)CSc2nnc(NC(=O)C3CC(=O)N(c4cccc(OC)c4)C3)s2)cc1 (stereo unspecified)', 'inhibition', 56.9),
  ('Cc1cc(C(C)(C)C)cc(C)c1N', 'inhibition', 3.48),
  ('CCC(C)CN1CCC(CO)(Cc2ccccc2Cl)CC1 (stereo unspecified)', 'inhibition', 82.2),
  ('CN(C)C(CNC(=O)c1cccc(C#N)c1)c1ccco1 (stereo unspecified)', 'inhibition', 3.86),
  ('COc1ccc(-c2nn(-c3ccccc3)cc2/C=N/Nc2ccccn2)cc1OC', 'inhibition', 27.8),
  ('COC(=O)c1ccc(N(CC(=O)NC2CCCC2)C(=O)CNC(=O)c2ccco2)cc1', 'inhibition', -5.36),
  ('CSc1ncnc2sc(C)c(C)c12', 'inhibition', -8.93),
  ('CCC(c1nnnn1Cc1ccco1)N(CCc1ccccc1)Cc1cc2ccc(OC)cc2[nH]c1=O (stereo unspecified)', 'inhibition', 85.7),
  ('N/C(=N\OC(=O)c1ccc([N+](=O)[O-])cc1)c1ccccn1', 'inhibition', 1.71),
  ('NNC(=O)c1cnn(-c2ccccc2)c1C(F)(F)F', 'inhibition', -1.35),
  ('CCOC(=O)c1sc(=NC(=O)/C=C/c2cccs2)n(C)c1C', 'inhibition', -7.45),
  ('CC(=O)NC1C(Oc2ccc(C=O)cc2)OC(COC(C)=O)C(OC(C)=O)C1OC(C)=O (stereo unspecified)', 'inhibition', -1.48),
  ('COc1cccc(N2CC(C(=O)Nc3c(C)cccc3C)CC2=O)c1 (stereo unspecified)', 'inhibition', 2.01),
  ('Cc1nc(-c2ccccc2)sc1C(=O)/C=C/N(C)C', 'inhibition', -7.03),
  ('CCOc1ccccc1Nc1nnc(SCC(=O)Nc2cc(C)on2)s1', 'inhibition', 4.84),
  ('CN(C)CCCn1c(SCCN2C(=O)c3ccccc3C2=O)nc2ccccc2c1=O', 'inhibition', -2.2),
  ('CCC(c1nnnn1Cc1ccco1)N(Cc1cc2cc(OC)ccc2[nH]c1=O)C1CCCCC1 (stereo unspecified)', 'inhibition', 49.5),
  ('Cc1ccccc1C(=O)Nc1ccc(N2CCCCCC2)cc1', 'inhibition', 89.4),
  ('COc1ccc(NC(=O)N2CCCC(c3nc(-c4ccc(F)cc4)no3)C2)cc1 (stereo unspecified)', 'inhibition', -5.76),
  ('OC1CSc2nc3ccccc3n2C1 (stereo unspecified)', 'inhibition', 0.82),
  ('CC(=O)NC1C(OCc2ccccc2)OC(COC(C)=O)C(OC(C)=O)C1OC(C)=O (stereo unspecified)', 'inhibition', 55.7),
  ('COc1ccc(-c2cc(C)nc3nc(N)nn23)cc1', 'inhibition', 0.56),
  ('O=C(NCc1ccncc1)NC12CC3CC(CC(C3)C1)C2', 'inhibition', 1.04),
  ('O=c1c2ccccc2c(-c2ccccc2)nn1-c1ccccn1', 'inhibition', -0.99),
  ('CS(=O)(=O)Nc1ccc(C2=NN(S(C)(=O)=O)C(c3cccs3)C2)cc1 (stereo unspecified)', 'inhibition', 0.6),
  ('COc1cccc(NC(=O)Nc2nnc(N3CCCCC3C)s2)c1 (stereo unspecified)', 'inhibition', 3.59),
  ('CCC(c1nnnn1Cc1ccco1)N(CCc1ccccc1)Cc1cc2cccc(C)c2[nH]c1=O (stereo unspecified)', 'inhibition', 39.7),
  ('Cn1nc(C(F)(F)F)c2cc(C(=O)N3CCOCC3)sc21', 'inhibition', -2.24),
  ('Cc1cc(N)n2nc(-c3ccc(C(C)(C)C)cc3)cc2n1', 'inhibition', 80.3),
  ('CC(C)CC(=O)NC(=S)Nc1ccc(F)cc1F', 'inhibition', -0.93),
  ('COc1cc(C)c(S(=O)(=O)N2CCOCC2)c(C)c1C', 'inhibition', -1.23),
  ('O=C(CSc1nc2ccc([N+](=O)[O-])cc2[nH]1)c1ccc(Cl)cc1', 'inhibition', -1.01);
